target: Dipeptidyl peptidase 2 (Homo sapiens); assay: Inhibition of DPP2 (unknown origin) using AMC substrate by fluorometric assay
Test Readout: IC50

Reported IC50 for C[C@@H](NC(=O)c1ccncc1)C(=O)N1CCC[C@H]1B(O)O was > 100 µM

====

Target: Prolyl endopeptidase FAP (Homo sapiens)
Sequence (Q12884 whole entry): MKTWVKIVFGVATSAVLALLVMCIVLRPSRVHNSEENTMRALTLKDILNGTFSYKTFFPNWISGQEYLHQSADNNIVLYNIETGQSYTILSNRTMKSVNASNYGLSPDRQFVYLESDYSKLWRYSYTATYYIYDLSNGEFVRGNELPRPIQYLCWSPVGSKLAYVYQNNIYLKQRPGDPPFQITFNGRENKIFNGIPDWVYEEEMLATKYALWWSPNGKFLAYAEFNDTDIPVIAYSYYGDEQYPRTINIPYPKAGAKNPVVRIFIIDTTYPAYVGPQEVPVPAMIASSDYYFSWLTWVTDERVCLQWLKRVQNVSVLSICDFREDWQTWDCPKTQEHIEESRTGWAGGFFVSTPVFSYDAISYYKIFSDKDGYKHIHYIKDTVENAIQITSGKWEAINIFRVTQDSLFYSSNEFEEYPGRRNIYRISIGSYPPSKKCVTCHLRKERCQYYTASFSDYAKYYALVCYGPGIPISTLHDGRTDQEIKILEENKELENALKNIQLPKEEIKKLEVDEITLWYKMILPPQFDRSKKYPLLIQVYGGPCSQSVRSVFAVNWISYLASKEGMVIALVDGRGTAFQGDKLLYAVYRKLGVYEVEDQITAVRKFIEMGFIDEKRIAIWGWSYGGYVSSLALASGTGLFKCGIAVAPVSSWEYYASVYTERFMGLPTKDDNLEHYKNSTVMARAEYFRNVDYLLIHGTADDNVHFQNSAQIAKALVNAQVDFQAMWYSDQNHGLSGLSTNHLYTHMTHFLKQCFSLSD
Test Readout: pIC50
The read-out pIC50 is expressed as -log10 of concentration in moles per litre.

Form field pIC50, entry COc1ccc(Cc2nc(C(=O)NCC(=O)N3CC(F)(F)C[C@H]3C#N)cs2)cc1 : 7.59

In plain terms, N#C[C@@H]1CC(F)(F)CN1C(=O)CNC(=O)c1csc(-c2ccc3occc3c2)n1 has a documented pIC50 of 6.35

Lab book: pIC50 of N#C[C@@H]1CC(F)(F)CN1C(=O)CNC(=O)c1csc(Cc2ccc(Cl)cc2)n1 noted as 7.68

response.value for N#C[C@@H]1CC(F)(F)CN1C(=O)CNC(=O)c1csc(-c2ccc(Cl)cc2C(F)(F)F)n1 (field: pIC50) = 7.22

Data point: N#C[C@@H]1CC(F)(F)CN1C(=O)CNC(=O)c1csc(CSc2ccc(C(F)(F)F)cc2)n1 ; pIC50 = 7.96

Query N#C[C@@H]1CC(F)(F)CN1C(=O)CNC(=O)c1csc(COc2ccc(Cl)c(Cl)c2)n1 yields pIC50 of 7.46

According to the records, this molecule N#C[C@@H]1CC(F)(F)CN1C(=O)CNC(=O)c1coc(-c2ccc(Cl)cc2)n1 displays pIC50 of 7.03

Form field pIC50, entry N#C[C@@H]1CC(F)(F)CN1C(=O)CNC(=O)c1csc(Cc2ccccc2I)n1 : 7.11

For record N#C[C@@H]1CC(F)(F)CN1C(=O)CNC(=O)c1cnc(-c2ccc(Cl)cc2)cn1 the listed pIC50 is 6.10

Record summary for N#C[C@@H]1CC(F)(F)CN1C(=O)CNC(=O)c1c[nH]c(-c2ccc(Cl)cc2)c1 : reported pIC50 = 6.26

The reported value for N#C[C@@H]1CC(F)(F)CN1C(=O)CNC(=O)c1csc(Cc2cccc(Br)c2)n1 in terms of pIC50 is 7.46

The recorded pIC50 for N#C[C@@H]1CC(F)(F)CN1C(=O)CNC(=O)c1csc(Cc2ccc(-n3cccn3)cc2)n1 is 7.64

pIC50 in this record for N#C[C@@H]1CC(F)(F)CN1C(=O)CNC(=O)c1csc(Cc2ccc(OC(F)(F)F)cc2)n1 : 7.66

get_value(item= CS(=O)(=O)c1ccc(Cc2nc(C(=O)NCC(=O)N3CC(F)(F)C[C@H]3C#N)cs2)cc1 , readout=pIC50) returns 7.70

get_value(item= N#C[C@@H]1CC(F)(F)CN1C(=O)CNC(=O)c1csc(Cc2ccc(Cl)cc2Cl)n1 , readout=pIC50) returns 9.00

// field: pIC50; key: N#C[C@@H]1CC(F)(F)CN1C(=O)CNC(=O)c1csc(-c2ccc(F)cc2)n1 ; value = 7.06

Please fill in: pIC50 reported for N#C[C@@H]1CC(F)(F)CN1C(=O)CNC(=O)c1csc(Cc2ccc(Br)cc2)n1 = 7.80

Lab note: N#Cc1ccc(SCc2nc(C(=O)NCC(=O)N3CC(F)(F)C[C@H]3C#N)cs2)cc1 gave pIC50 of 7.62

====

target: Prolyl endopeptidase FAP (Homo sapiens); assay: Inhibition of FAP (unknown origin) at 1 uM TR-FRET assay relative to control
Provide the recorded inhibition for the entries that follow.
Respond with the bare value in %.

molecule N#C[C@@H]1CC(F)(F)CN1C(=O)CNC(=O)c1csc(Cc2ccc(Cl)cc2)n1 , inhibition observed: 98.6

Given item C[S+]([O-])c1ccc(Cc2nc(C(=O)NCC(=O)N3CC(F)(F)C[C@H]3C#N)cs2)cc1 (stereo not given in full) , the value recorded as its inhibition is 95

inhibition recorded for this molecule, N#C[C@@H]1CC(F)(F)CN1C(=O)CNC(=O)c1csc(-c2ccc(-c3ccccc3)cc2)n1 , is 84.8

Sure, the documented inhibition for COc1ccc(-c2nc(C(=O)NCC(=O)N3CC(F)(F)C[C@H]3C#N)cs2)cc1 is 76.5

Looking up N#C[C@@H]1CC(F)(F)CN1C(=O)CNC(=O)c1csc(Cc2ccc(Br)cc2)n1 , I see its inhibition listed as 100

====

pIC50: −log10 of the molar value.
Below are pIC50 values recorded for Dipeptidyl peptidase 4 (Homo sapiens, UniProt P27487).

Observed pIC50 on Dipeptidyl peptidase 4 (Homo sapiens, UniProt P27487), entry COc1ccc(Cc2nc(C(=O)NCC(=O)N3CC(F)(F)C[C@H]3C#N)cs2)cc1 , equals < 4.00

The observed pIC50 for N#C[C@@H]1CC(F)(F)CN1C(=O)CNC(=O)c1csc(Cc2ccccc2I)n1 when tested with Dipeptidyl peptidase 4 (Homo sapiens, UniProt P27487) stands at < 4.00

Record N#C[C@@H]1CC(F)(F)CN1C(=O)CNC(=O)c1csc(Cc2ccc(-n3cncn3)cc2)n1 has Dipeptidyl peptidase 4 (Homo sapiens, UniProt P27487) pIC50 equal to 4.73

Value (pIC50, Dipeptidyl peptidase 4 (Homo sapiens, UniProt P27487)) for record Cc1ccc(S(=O)(=O)Cc2nc(C(=O)NCC(=O)N3CC(F)(F)C[C@H]3C#N)cs2)cc1 = < 4.00

Entry N#Cc1ccc(-c2ccc(Cc3nc(C(=O)NCC(=O)N4CC(F)(F)C[C@H]4C#N)cs3)cc2)cc1 , Dipeptidyl peptidase 4 (Homo sapiens, UniProt P27487) data, pIC50 value: < 4.00

Reported pIC50 (Dipeptidyl peptidase 4 (Homo sapiens, UniProt P27487)) for entry N#C[C@@H]1CC(F)(F)CN1C(=O)CNC(=O)c1csc(Cc2ccc(Br)cc2)n1 is < 4.00

Let me check: N#C[C@@H]1CC(F)(F)CN1C(=O)CNC(=O)c1csc(Cc2ccccc2-c2ccc3ccccc3c2)n1 , system Dipeptidyl peptidase 4 (Homo sapiens, UniProt P27487), measured pIC50 is < 4.00

Form: item N#C[C@@H]1CC(F)(F)CN1C(=O)CNC(=O)c1csc(CSc2ccc(Cl)c(Cl)c2)n1 ; test system Dipeptidyl peptidase 4 (Homo sapiens, UniProt P27487); pIC50: < 4.00

Cc1ccc(Cc2nc(C(=O)NCC(=O)N3CC(F)(F)C[C@H]3C#N)cs2)cc1 on Dipeptidyl peptidase 4 (Homo sapiens, UniProt P27487) gives pIC50 = 4.16

Record N#C[C@@H]1CC(F)(F)CN1C(=O)CNC(=O)c1csc(CS(=O)(=O)c2ccc(Cl)c(Cl)c2)n1 has Dipeptidyl peptidase 4 (Homo sapiens, UniProt P27487) pIC50 equal to < 4.00

Considering CSc1ccc(Cc2nc(C(=O)NCC(=O)N3CC(F)(F)C[C@H]3C#N)cs2)cc1 , its pIC50 with Dipeptidyl peptidase 4 (Homo sapiens, UniProt P27487) was recorded as < 4.00

pIC50 of CS(=O)(=O)c1ccc(Cc2nc(C(=O)NCC(=O)N3CC(F)(F)C[C@H]3C#N)cs2)cc1 , assay on Dipeptidyl peptidase 4 (Homo sapiens, UniProt P27487), is 5.00

Tested on Dipeptidyl peptidase 4 (Homo sapiens, UniProt P27487): N#C[C@@H]1CC(F)(F)CN1C(=O)CNC(=O)c1csc(-c2ccc(C(F)(F)F)cc2)n1 . Observed pIC50: < 4.00

The reported Dipeptidyl peptidase 4 (Homo sapiens, UniProt P27487) pIC50 of N#C[C@@H]1CC(F)(F)CN1C(=O)CNC(=O)c1csc(Cc2ccc(OC(F)(F)F)cc2)n1 is < 4.00

Form field, pIC50 with Dipeptidyl peptidase 4 (Homo sapiens, UniProt P27487), item C[C@@H](NC(=O)c1ccncc1)C(=O)N1CCC[C@H]1B(O)O : < 4.00

So the reported pIC50 for C[S+]([O-])c1ccc(Cc2nc(C(=O)NCC(=O)N3CC(F)(F)C[C@H]3C#N)cs2)cc1 (stereo partly specified) , on Dipeptidyl peptidase 4 (Homo sapiens, UniProt P27487), turned out to be 5.39
